# PROTOCOL SUMMARY: in vivo
# STUDY CONDITIONS: male, Locusta migratoria (grasshopper/locust), 12.6 µg per insect, average concentration in brain supernatant, 20 μl of 630 μg/ml injected, 5 minutes, washed in saline, neural lamella included, 3 brains per tube
MEASURED METRIC: concentration at 5 min (ng/mL)
Provide the reading as a plain figure in ng/mL.

Return reported concentration at 5 min; argument: NCCc1c[nH]c2ccc(O)cc12
86.5

---

# PROTOCOL SUMMARY: in vivo
# STUDY CONDITIONS: male, Locusta migratoria (grasshopper/locust), 168 µg per insect
MEASURED METRIC: concentration at 5 min

Can you look up the measured concentration at 5 min of O=C1CC2(CCCC2)CC(=O)N1CCCCN1CCN(c2ncccn2)CC1 for me?
< 20 ng/mL
